# methodDescription: chemical genetic growth profiling, strain panel (AID 1159580);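 note: tested at 20 µM; growth read once vehicle control cultures reached saturation at 30 °C; lower values mean less growth of the strain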
# measurementContext: S. cerevisiae deletion strains, growth OD, locus YJL154C, strain vps35
The campaign covered roughly 5,500 compounds. About 2,000 (36%) were called active. Inconclusive results (about 18%) are left out. Cut-off read from the data, not from the text of the source: active = normalized growth mostly below about 0.91 (no sharp cut-off); inconclusive = no clear call, values can overlap the other calls; inactive = mostly above about 0.92. Some of the results follow.
Hello, when you answer, please use one of the following outcomes: T = active, F = inactive

Here are 3 compounds together with their reported answers.
[
  {
    "compound": "CC(=CC1CCC(C)C2C1=C(C)CC2O)C(=O)O (stereo unspecified)",
    "classLabel": "F"
  },
  {
    "compound": "O=C(O)CC[N+](=O)[O-]",
    "classLabel": "F"
  },
  {
    "compound": "CC(C)C1CCC(C(=O)N[C@@H](Cc2ccccc2)C(=O)O)CC1 (stereo partly specified)",
    "classLabel": "F"
  }
]

Each compound tested received a call. Report the one for C[C@H]1C(=O)CCC2[C@]3(C)CC[C@@]4(C)C5CC(C)(C)CC[C@]5(C)CC[C@]4(C)C3CC[C@@]21C (stereo partly specified) .
F

Each compound tested received a call. Report the one for CCCN(CCC)c1c([N+](=O)[O-])cc(C(F)(F)F)cc1[N+](=O)[O-] .
F

Each compound tested received a call. Report the one for COc1cc(O)c2c(c1)C(=O)c1cc(C)cc(O)c1C2=O .
F

Each compound tested received a call. Report the one for O=C1C=CC(=O)c2ccccc21 .
T

Each compound tested received a call. Report the one for CC1CC(OC(=O)c2ccccc2O)CC(C)(C)C1 (stereo unspecified) .
F

Each compound tested received a call. Report the one for COC(=O)CC1C(C)(C(=O)c2ccoc2)CC2OCC34C(CC(=O)OC)C5(C)CC36OC3(C)OC1(C(OC(C)=O)C6(OC(C)=O)C5OC(=O)C(C)C)C24O3 (stereo unspecified) .
F

Each compound tested received a call. Report the one for O=c1c(O)c(-c2ccccc2)oc2cccc(O)c12 .
T

Each compound tested received a call. Report the one for O=C(O)c1cccnc1C(=O)O .
F

Each compound tested received a call. Report the one for COc1cc(OC)c2c(OC)c(-c3ccc4c(c3)OCO4)c(=O)oc2c1 .
F

Each compound tested received a call. Report the one for CC(=O)c1c(O)cc(O)cc1O .
F

Each compound tested received a call. Report the one for Oc1cccc2cccnc12 .
T
